Listing: Growth Rate of selected molecules
test system: Fibroblast; assay: Incucyte cell viability with human fibroblast; format: toxicity, cell-based; conditions: 12 h, 10 µM, compound concentration 10 uM, replicate number 1, timepoint 12 hours; also: filed as whole numbers so only -1 and 0 and 1 occur
Assay readout: Growth Rate

{"Molecule": "CNc1nc(Nc2cnn([C@H]3CCN(C4COC4)C[C@@H]3F)c2Cl)ncc1C(F)(F)F", "Assay readout": "Growth Rate", "Quantitative result": 1}
{"Molecule": "CS(=O)(=O)c1cc(C2(NC(=O)c3cncc4c3cnn4-c3ccc(F)cc3)CC2)ccn1", "Assay readout": "Growth Rate", "Quantitative result": 1}
{"Molecule": "CNc1nc(-c2ccc3c(N)n[nH]c3c2)cc(N2C[C@@H](C(=O)NC3CCCCC3)CC[C@H]2C)n1", "Assay readout": "Growth Rate", "Quantitative result": 0}
{"Molecule": "CN(C)C/C=C/C(=O)Nc1cc2c(Nc3ccc(F)c(Cl)c3)ncnc2cc1O[C@H]1CCOC1.O=C(O)/C=C\\C(=O)O.O=C(O)/C=C\\C(=O)O [AFATINIB DIMALEATE]", "Assay readout": "Growth Rate", "Quantitative result": 0}
{"Molecule": "Nc1nc(NCCc2ccc(O)cc2)nc2nc(-c3ccco3)nn12", "Assay readout": "Growth Rate", "Quantitative result": 1}
{"Molecule": "O=C(O)COc1cccc(CN(Cc2ccc(-n3cccn3)cc2)S(=O)(=O)c2cccnc2)c1", "Assay readout": "Growth Rate", "Quantitative result": 1}
{"Molecule": "Clc1cc2c(NC3CCCC3)nnc(-c3ccncc3)c2cc1Cl", "Assay readout": "Growth Rate", "Quantitative result": 1}
{"Molecule": "CCCn1c(=O)c2[nH]c(C34CC5CC(CC3C5)C4)nc2n(CCC)c1=O", "Assay readout": "Growth Rate", "Quantitative result": 0}

###

Listing: Population Pyknosed Nuclei (%) of selected compounds
tested on: Fibroblast; assay: Multiplex assay against human fibroblast; format: toxicity, cell-based; settings: 48 h, 1 µM, compound concentration 1 uM, replicate 2

{"Compound": "Nc1nc2c(c(N3CCNCC3)n1)CCC1=C2[C@@H]2CCCC[C@@H]2O1", "Result unit": "%", "Population Pyknosed Nuclei (%)": 9}
{"Compound": "COc1cc2c(NC3CCN(C(C)C)CC3)nc(N3CCC(F)(F)CC3)nc2cc1OCCCN1CCCC1", "Result unit": "%", "Population Pyknosed Nuclei (%)": 7}
{"Compound": "COc1ccc(NS(=O)(=O)c2sc3ccc(Cl)cc3c2C)cc1N1CCNCC1.Cl", "Result unit": "%", "Population Pyknosed Nuclei (%)": 1}
{"Compound": "Cl.Cl.Nc1ncnc2c1c(-c1cccc(OCc3ccccc3)c1)cn2[C@H]1C[C@@H](CN2CCC2)C1", "Result unit": "%", "Population Pyknosed Nuclei (%)": 1}
{"Compound": "CC(=O)c1cc(-c2cc(C(=O)NC3CC3)ccc2C)c2ncccn12", "Result unit": "%", "Population Pyknosed Nuclei (%)": 3}
{"Compound": "CCc1cc2c(cc1CC)CC(NC[C@H](O)c1ccc(O)c3[nH]c(=O)ccc13)C2", "Result unit": "%", "Population Pyknosed Nuclei (%)": 1}
{"Compound": "CNc1oc(-c2cccc3ccccc23)nc1C#N", "Result unit": "%", "Population Pyknosed Nuclei (%)": 4}
{"Compound": "Cc1nc(Cc2cccc(C(F)(F)F)c2)sc1-c1ccc(C(N)=O)nc1 [TP-024n]", "Result unit": "%", "Population Pyknosed Nuclei (%)": 3}
{"Compound": "O=C(O)c1ccc2cc(-c3ccc(O)c(C45CC6CC(CC(C6)C4)C5)c3)ccc2c1", "Result unit": "%", "Population Pyknosed Nuclei (%)": 9}
{"Compound": "Nc1ccc(C(=O)Nc2cccc(-c3nc(N4CCOCC4)c4oc5ncccc5c4n3)c2)cn1", "Result unit": "%", "Population Pyknosed Nuclei (%)": 0}
{"Compound": "CCC(=O)O[C@]1(C(=O)SCF)[C@H](C)C[C@H]2[C@@H]3C[C@H](F)C4=CC(=O)C=C[C@]4(C)[C@@]3(F)[C@@H](O)C[C@@]21C [FLUTICASONE PROPIONATE]", "Result unit": "%", "Population Pyknosed Nuclei (%)": 0}
{"Compound": "Cc1cc2c(cc1N1C(=O)c3cccc4c(CCCO)ccc(c34)C1=O)n(C)c(=O)n2C", "Result unit": "%", "Population Pyknosed Nuclei (%)": 2}
{"Compound": "CC(C)N1CCC(C)(C)c2cc(C#Cc3ccc(C(=O)O)cc3)ccc21", "Result unit": "%", "Population Pyknosed Nuclei (%)": 0}
{"Compound": "CCCn1c(=O)c2[nH]c(C34CC5CC(CC3C5)C4)nc2n(CCC)c1=O", "Result unit": "%", "Population Pyknosed Nuclei (%)": 1}
{"Compound": "CCn1c(-c2nonc2N)nc2cnc(Oc3cccc(NC(=O)c4ccc(OCCN5CCOCC5)cc4)c3)cc21 [GSK-269962A]", "Result unit": "%", "Population Pyknosed Nuclei (%)": 3}
